target: Pepsin A (Homo sapiens, UniProt P0DJD9)
Sequence (P0DJD9 whole entry): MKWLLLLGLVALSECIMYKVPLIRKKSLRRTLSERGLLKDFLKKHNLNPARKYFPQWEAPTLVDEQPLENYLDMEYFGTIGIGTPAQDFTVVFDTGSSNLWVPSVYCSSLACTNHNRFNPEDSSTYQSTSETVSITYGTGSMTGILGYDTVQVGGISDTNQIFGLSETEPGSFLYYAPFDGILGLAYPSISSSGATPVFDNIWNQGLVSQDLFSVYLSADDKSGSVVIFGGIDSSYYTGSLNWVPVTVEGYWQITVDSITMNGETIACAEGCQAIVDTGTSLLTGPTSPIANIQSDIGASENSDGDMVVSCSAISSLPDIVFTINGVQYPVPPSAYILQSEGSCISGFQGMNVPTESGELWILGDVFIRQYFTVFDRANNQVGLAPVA
pIC50: −log10 of the molar value.
VALUE_TYPE: pIC50

Provide pIC50 value for the following compound: CC(C)(C)S(=O)(=O)CC(Cc1ccccc1)C(=O)NC(Cc1c[nH]cn1)C(=O)N[C@@H](CC1CCCCC1)[C@@H](O)[C@@H](O)[C@H](O)[C@H](O)CO (stereo partly specified)
< 4.00

----------
target: Renin (Homo sapiens, UniProt P00797); assay: Concentration required for 50% inhibition of human plasma renin; type: cell-free
Sequence (P00797 whole entry): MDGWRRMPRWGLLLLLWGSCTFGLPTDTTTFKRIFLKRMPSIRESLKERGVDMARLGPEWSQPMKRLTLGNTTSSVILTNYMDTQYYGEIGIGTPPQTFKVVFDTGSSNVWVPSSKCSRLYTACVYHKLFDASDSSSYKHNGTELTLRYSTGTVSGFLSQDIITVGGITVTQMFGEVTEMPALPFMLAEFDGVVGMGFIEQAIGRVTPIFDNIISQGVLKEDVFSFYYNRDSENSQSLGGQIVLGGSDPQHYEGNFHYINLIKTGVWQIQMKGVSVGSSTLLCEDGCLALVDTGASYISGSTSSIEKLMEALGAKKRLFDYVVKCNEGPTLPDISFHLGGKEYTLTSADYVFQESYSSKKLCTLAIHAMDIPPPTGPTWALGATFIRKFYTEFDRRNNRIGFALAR
IC50 vs 20 nM: less than gives yes (1); not less than gives no (0).

See these solved cases before continuing.
| MOLECULE | QUALITATIVE_LABEL |
| --- | --- |
| CCC[C@H](NC(=O)[C@H](Cc1ccccc1)NC(=O)[C@@H](N)[C@@H](C)CC)C(=O)N[C@@H](CC1CCCCC1)[C@@H](O)[C@@H](O)[C@H](O)[C@H](O)CO | no (0) |
| CCC[C@H](NC(=O)[C@H](Cc1ccccc1)NC(=O)[C@@H](N)[C@@H](C)CC)C(=O)N[C@@H](CC1CCCCC1)[C@@H](O)[C@@H](O)[C@H](O)[C@@H](O)CO | no (0) |
| N[C@H]1CC[C@@H](C(=O)N[C@@H](Cc2ccccc2)C(=O)NC(Cc2c[nH]cn2)C(=O)N[C@@H](CC2CCCCC2)[C@@H](O)[C@@H](O)[C@H](O)[C@H](O)CO)CC1 (stereo not given in full) | no (0) |

Would you kindly verify if IC50 of CN(CCN(C)C(=O)N1CCOCC1)C(=O)O[C@@H](Cc1ccccc1)C(=O)NC(Cc1cnc[nH]1)C(=O)N[C@@H](CC1CCCCC1)[C@@H](O)[C@@H](O)[C@H](O)[C@H](O)CO (stereo not given in full) is strictly less than 20 nM?
yes (1)

Would you kindly verify if IC50 of CC(C)(C)S(=O)(=O)CC(Cc1ccccc1)C(=O)NC(Cc1c[nH]cn1)C(=O)N[C@@H](CC1CCCCC1)[C@@H](O)[C@@H](O)[C@H](O)[C@H](O)CO (stereo not given in full) is strictly less than 20 nM?
yes (1)

----------
target: Renin (Canis familiaris); experiment: Concentration required for 50% inhibition of dog plasma renin
VALUE_TYPE: IC50 (nM)
Note: unit nM is implicit; provide only the numeric part.

Provide IC50 value for the following molecule: CC(C)(C)S(=O)(=O)CC(Cc1ccccc1)C(=O)NC(Cc1c[nH]cn1)C(=O)N[C@@H](CC1CCCCC1)[C@@H](O)[C@@H](O)[C@H](O)[C@H](O)CO (stereo partly specified)
110

----------
molecular target: Renin (Homo sapiens); test: Concentration required for 50% inhibition of human kidney renin
IC50 vs 50 nM: less than gives 1 (yes); not less than gives 0 (no).

Would you kindly verify if IC50 of CN(CCN(C)C(=O)N1CCOCC1)C(=O)O[C@@H](Cc1ccccc1)C(=O)NC(Cc1cnc[nH]1)C(=O)N[C@@H](CC1CCCCC1)[C@@H](O)[C@@H](O)[C@H](O)[C@H](O)CO (stereo not given in full) is strictly less than 50 nM?
1 (yes)

Would you kindly verify if IC50 of N[C@H]1CC[C@@H](C(=O)N[C@@H](Cc2ccccc2)C(=O)NC(Cc2c[nH]cn2)C(=O)N[C@@H](CC2CCCCC2)[C@@H](O)[C@@H](O)[C@H](O)[C@H](O)CO)CC1 (stereo not given in full) is strictly less than 50 nM?
1 (yes)

Would you kindly verify if IC50 of CC(C)(C)S(=O)(=O)CC(Cc1ccccc1)C(=O)NC(Cc1c[nH]cn1)C(=O)N[C@@H](CC1CCCCC1)[C@@H](O)[C@@H](O)[C@H](O)[C@H](O)CO (stereo not given in full) is strictly less than 50 nM?
1 (yes)

Would you kindly verify if IC50 of CCC[C@H](NC(=O)[C@H](Cc1ccccc1)NC(=O)[C@@H](N)[C@@H](C)CC)C(=O)N[C@@H](CC1CCCCC1)[C@@H](O)[C@@H](O)[C@H](O)[C@@H](O)CO is strictly less than 50 nM?
0 (no)
